Field: pIC50. Provide a value for each of the molecules that follow.
target: PI3Kβ (Homo sapiens (Human)); assay: PI3K isoform TR-FRET enzymatic assay (PI3Kβ); details: 2× Km ATP, 30 minutes at 25° C.
Sequence (P42338 whole entry, canonical isoform): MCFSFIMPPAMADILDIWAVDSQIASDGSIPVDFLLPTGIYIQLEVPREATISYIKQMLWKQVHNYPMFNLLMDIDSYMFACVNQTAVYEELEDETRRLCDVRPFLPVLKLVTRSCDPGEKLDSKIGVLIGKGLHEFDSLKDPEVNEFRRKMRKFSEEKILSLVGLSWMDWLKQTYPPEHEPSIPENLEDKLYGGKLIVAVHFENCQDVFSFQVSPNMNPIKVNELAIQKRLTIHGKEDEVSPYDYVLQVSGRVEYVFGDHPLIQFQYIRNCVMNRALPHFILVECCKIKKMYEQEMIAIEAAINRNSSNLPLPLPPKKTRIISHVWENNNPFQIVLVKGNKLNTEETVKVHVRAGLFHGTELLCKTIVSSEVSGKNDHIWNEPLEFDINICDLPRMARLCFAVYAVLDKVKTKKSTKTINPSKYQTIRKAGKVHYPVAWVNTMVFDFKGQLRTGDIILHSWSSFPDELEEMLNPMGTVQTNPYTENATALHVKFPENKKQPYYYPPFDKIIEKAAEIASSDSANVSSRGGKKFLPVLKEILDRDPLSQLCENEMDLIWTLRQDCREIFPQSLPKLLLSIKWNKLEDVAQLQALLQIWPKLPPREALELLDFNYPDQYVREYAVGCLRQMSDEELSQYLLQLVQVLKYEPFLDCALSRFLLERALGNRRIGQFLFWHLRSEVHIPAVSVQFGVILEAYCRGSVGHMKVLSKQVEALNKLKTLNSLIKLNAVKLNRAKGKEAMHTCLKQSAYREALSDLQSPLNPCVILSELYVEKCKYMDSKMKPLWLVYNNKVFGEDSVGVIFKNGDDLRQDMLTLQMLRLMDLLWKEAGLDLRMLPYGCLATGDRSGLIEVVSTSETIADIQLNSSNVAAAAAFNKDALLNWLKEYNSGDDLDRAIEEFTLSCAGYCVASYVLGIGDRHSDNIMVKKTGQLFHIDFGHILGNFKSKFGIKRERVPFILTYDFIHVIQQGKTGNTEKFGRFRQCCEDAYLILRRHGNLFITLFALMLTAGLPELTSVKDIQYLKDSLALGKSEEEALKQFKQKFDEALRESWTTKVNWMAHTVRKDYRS
Sequence (P27986 whole entry partner, canonical isoform): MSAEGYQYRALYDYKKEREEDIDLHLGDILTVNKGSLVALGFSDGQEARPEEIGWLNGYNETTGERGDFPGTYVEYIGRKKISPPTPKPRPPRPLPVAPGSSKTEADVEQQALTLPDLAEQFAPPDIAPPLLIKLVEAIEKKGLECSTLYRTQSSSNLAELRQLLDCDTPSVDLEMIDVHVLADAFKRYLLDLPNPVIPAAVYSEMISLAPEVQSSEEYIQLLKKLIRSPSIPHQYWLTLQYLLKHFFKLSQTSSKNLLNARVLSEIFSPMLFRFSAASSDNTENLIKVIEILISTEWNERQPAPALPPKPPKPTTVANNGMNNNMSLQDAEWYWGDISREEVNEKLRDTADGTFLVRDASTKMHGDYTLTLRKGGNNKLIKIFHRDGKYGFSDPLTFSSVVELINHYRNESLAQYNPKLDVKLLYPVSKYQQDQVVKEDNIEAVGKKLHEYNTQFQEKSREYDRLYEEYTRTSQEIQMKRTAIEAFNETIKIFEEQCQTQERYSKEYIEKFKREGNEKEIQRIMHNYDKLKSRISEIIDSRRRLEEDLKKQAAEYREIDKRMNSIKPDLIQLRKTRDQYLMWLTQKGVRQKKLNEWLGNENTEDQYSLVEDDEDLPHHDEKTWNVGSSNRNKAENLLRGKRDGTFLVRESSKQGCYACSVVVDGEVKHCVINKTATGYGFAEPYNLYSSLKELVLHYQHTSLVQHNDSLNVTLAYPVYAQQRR
// pIC50 here means minus log10 of the molar concentration (mol/L)

Can you look up the measured pIC50 of Fc1cccc2c(-n3cnc4c(-c5nnc[nH]5)cc(N5CCOCC5)cc43)ccnc12 [Example 95] for me? 8.22

Can you look up the measured pIC50 of Cc1nc2c(-c3cncnc3)cc(N3CCOCC3)cc2n1-c1ccnc2c(Cl)cccc12 [Example 315] for me? 6.31

Can you look up the measured pIC50 of Clc1cccc2c(-n3c(C4CCCO4)nc4c(-c5nnc[nH]5)cc(N5CCOCC5)cc43)ccnc12 (stereo not shown) [Example 102] for me? 7.68

Can you look up the measured pIC50 of CC(C)Cc1nc2c(-c3cnc(Cl)[nH]3)cc(N3CCOCC3)cc2n1-c1ccnc2c(F)ccc(F)c12 [Example 300] for me? 7.85

Can you look up the measured pIC50 of Cn1cc(-c2nc3c(-c4nnc[nH]4)cc(N4CCOCC4)cc3n2-c2ccnc3c(Cl)cccc23)cn1 [Example 121] for me? 7.36

Can you look up the measured pIC50 of Cc1cc(-n2c(C)nc3c(-c4nnc[nH]4)cc(N4CCOCC4)cc32)c2cccc(Cl)c2n1 [Example 64] for me? 7.68

Can you look up the measured pIC50 of Cc1nc2c(-c3nnc[nH]3)cc(N3CCOCC3)cc2n1-c1cc(-c2nnc[nH]2)nc2ccccc12 [Example 57] for me? 7.26

* * *

target: PI3Kβ (Homo sapiens (Human)); assay: PI3K isoform TR-FRET enzymatic assay (PI3Kβ); conditions: 2× Km ATP, 30 minutes at 25° C.
readout-type: IC50 (nM)
Quick reminder: number only, in nM, skip the unit.

Can you look up the measured IC50 of CCCc1nc2c(-c3ncco3)cc(N3CCOCC3)cc2n1-c1ccnc2c(F)ccc(F)c12 (atropisomer, axis not shown) [Compound 357] for me? 5

Can you look up the measured IC50 of Clc1cccc2c(-n3c(C4CCOC4)nc4c(-c5nnc[nH]5)cc(N5CCOCC5)cc43)ccnc12 (stereo not shown) [Example 9] for me? 33

Can you look up the measured IC50 of Cc1nc2c(-c3nnc[nH]3)cc(N3CCOC[C@H]3C)cc2n1-c1ccnc2c(Cl)cccc12 [Example 100] for me? 43

Can you look up the measured IC50 of CCc1nc2c(-c3nnc(C)[nH]3)cc(N3CCOCC3)cc2n1-c1c(Cl)cnc2c(Cl)cccc12 (atropisomer, axis not shown) [Compound 348] for me? 13

Can you look up the measured IC50 of CCc1nc2c(-c3cnc(Cl)[nH]3)cc(N3CCOCC3)cc2n1-c1ccnc2c(F)ccc(F)c12 [Example 280] for me? 13

Can you look up the measured IC50 of CCc1nc2c(F)cccc2c(-n2c(C)nc3c(-c4nc(C)n[nH]4)cc(N4CCOCC4)cc32)c1C [Example 80] for me? 61

* * *

target: PI3Kβ (Homo sapiens (Human)); assay: PI3K isoform TR-FRET enzymatic assay (PI3Kβ); conditions: 2× Km ATP, 30 minutes at 25° C.
readout-type: log10 of IC50 (log10 of the value in nM)
Transform log10 | Measure IC50 | Unit nM

Can you look up the measured log10 of IC50 of Cc1nc2c(-c3ncco3)cc(N3CCOCC3)cc2n1-c1ccnc2c(F)cccc12 [Example 200] for me? 0.95

Can you look up the measured log10 of IC50 of Cc1nc2c(-c3nnc(N)s3)cc(N3CCOCC3)cc2n1-c1ccnc2cc(F)ccc12 [Example 165] for me? 2.86

Can you look up the measured log10 of IC50 of Cc1nc2c(-c3nnc(N)[nH]3)cc(N3CCOCC3)cc2n1-c1ccnc2c(F)ccc(F)c12 [Example 393] for me? 1.32

Can you look up the measured log10 of IC50 of Cc1nc2c(-c3ccnn3C)cc(N3CCOCC3)cc2n1-c1ccnc2c(Cl)cccc12 [Example 269] for me? 3.85

Can you look up the measured log10 of IC50 of CCc1nc2c(-c3cnc(Cl)[nH]3)cc(N3CCOCC3)cc2n1-c1ccnc2c(F)ccc(F)c12 (atropisomer, axis not shown) [Compound 346] for me? 4.00

Can you look up the measured log10 of IC50 of Cc1nc2c(-c3nnc[nH]3)cc(N3CCOCC3)cc2n1-c1ccnc2c(C(F)(F)F)cccc12 [Example 108] for me? 1.41

Can you look up the measured log10 of IC50 of Cc1nc2c(-c3nnc(Cl)[nH]3)cc(N3CCOCC3)cc2n1-c1ccnc2c(Cl)c(F)ccc12 [Example 171] for me? 2.00

Can you look up the measured log10 of IC50 of Cc1nnc(-c2cc(N3CCOCC3)cc3c2ncn3-c2cc(-c3cn[nH]c3)nc3ccccc23)[nH]1 [Example 380] for me? 2.38
